Test: Clearance in iv dosed rat
Assay type: ADME, organism-based
Conditions: in vivo
Measurement Kind: clearance
Field note: include the unit after the figure.

Fill blank: measured clearance of the molecule CN(C)S(=O)(=O)NC(=O)CCCc1c(-c2ccc(F)cc2)[nH]c2ccc(C#N)cc12 is ____.
3.8 mL/min/kg

---

Assay: Half life in iv dosed rat
Type: ADME, organism-based
Conditions: in vivo
Measurement Kind: half-life (h)
Please give a number only; it is taken to be in h.

Fill blank: measured half-life of the compound CN(C)S(=O)(=O)NC(=O)CCCc1c(-c2ccc(F)cc2)[nH]c2ccc(C#N)cc12 is ____.
2.7

---

Target: C-X-C chemokine receptor type 2 (Homo sapiens, UniProt P25025)
Sequence (P25025 whole entry): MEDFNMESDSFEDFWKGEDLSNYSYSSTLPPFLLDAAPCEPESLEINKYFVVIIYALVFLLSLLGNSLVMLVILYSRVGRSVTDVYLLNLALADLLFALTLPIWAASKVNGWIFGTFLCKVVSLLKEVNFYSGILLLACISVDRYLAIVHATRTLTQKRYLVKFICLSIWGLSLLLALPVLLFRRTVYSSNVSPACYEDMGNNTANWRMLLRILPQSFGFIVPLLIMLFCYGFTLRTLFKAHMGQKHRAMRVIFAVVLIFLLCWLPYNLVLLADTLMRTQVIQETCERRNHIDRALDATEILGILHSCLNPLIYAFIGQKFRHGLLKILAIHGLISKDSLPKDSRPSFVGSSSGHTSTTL
Assay: Displacement of europium labeled-human IL8 from human cloned CXCR2 expressed in Sf9 membrane with Galphai3-beta-1-gamma-2 by DELFIA binding assay
Labelling field: enter 1 (yes) if recorded IC50 is less than 200 nM. Enter 0 (no) if it equals or exceeds that cut-off.

Worked cases, answers included:
N#Cc1ccc2[nH]c(-c3ccc(F)cc3)c(CCCC(=O)NS(=O)(=O)Nc3ccccc3)c2c1 : 0 (no)
Cc1cc2[nH]c(-c3ccc(F)cc3)c(CCCC(=O)NS(C)(=O)=O)c2cc1C#N : 1 (yes)
N#Cc1ccc2[nH]c(-c3ccc(F)cc3)c(CCCC(=O)NS(=O)(=O)N3CCOCC3)c2c1 : 1 (yes)
CS(=O)(=O)NC(=O)CCCc1c(-c2ccc(F)cc2)[nH]c2ccc(C#N)cc12 : 1 (yes)
CS(=O)(=O)NC(=O)CCCc1c(-c2ccc(F)cc2)[nH]c2ccc(Br)cc12 : 1 (yes)
N#Cc1ccc2[nH]c(-c3ccc(F)cc3)c(CCNC(=O)NS(=O)(=O)c3ccccc3)c2c1 : 1 (yes)

Could you please tell me whether IC50 recorded for N#Cc1ccc2[nH]c(-c3ccc(F)cc3)c(CCNC(=O)NS(=O)(=O)c3ccc(F)cc3)c2c1 is less than 200 nM?
0 (no)

Could you please tell me whether IC50 recorded for Cc1cc2[nH]c(-c3ccc(F)cc3)c(CCCC(=O)NS(=O)(=O)N(C)C)c2cc1C#N is less than 200 nM?
1 (yes)

---

Target sequence: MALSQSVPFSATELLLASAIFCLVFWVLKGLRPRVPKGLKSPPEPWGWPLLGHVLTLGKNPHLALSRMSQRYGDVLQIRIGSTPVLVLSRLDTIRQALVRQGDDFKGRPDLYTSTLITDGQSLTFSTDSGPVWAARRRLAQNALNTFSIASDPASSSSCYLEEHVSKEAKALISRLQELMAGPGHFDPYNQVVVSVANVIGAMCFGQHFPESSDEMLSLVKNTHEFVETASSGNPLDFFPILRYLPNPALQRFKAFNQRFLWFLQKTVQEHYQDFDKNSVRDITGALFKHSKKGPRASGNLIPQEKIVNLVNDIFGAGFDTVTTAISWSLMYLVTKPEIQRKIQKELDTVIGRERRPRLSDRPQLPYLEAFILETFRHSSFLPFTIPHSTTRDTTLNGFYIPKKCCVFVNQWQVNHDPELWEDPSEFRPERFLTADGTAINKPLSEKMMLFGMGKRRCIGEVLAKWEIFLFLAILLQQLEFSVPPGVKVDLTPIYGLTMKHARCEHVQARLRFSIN
Measurement Kind: IC50

Fill blank: measured IC50 of the compound CN(C)S(=O)(=O)NC(=O)CCCc1c(-c2ccc(F)cc2)[nH]c2ccc(C#N)cc12 is ____.
> 5 µM

Recorded values, source ChEMBL document CHEMBL1141538.
